Origin of values: ChEMBL document CHEMBL4706761

- Test system: microRNA 21
- Protocol: Selectivity index, ratio of Kd for 5'-FAM/3'-DAB-labeled UGUCGGGUAGCUUAUCAGACUGAUGUUGACUGUUGAAUCUCAUGGCAACACCAGUCGAUGGGCUGUCUGACA pre-miRNA-21 (unknown origin) in presence of tRNA to Kd for 5'-FAM/3'-DAB-labeled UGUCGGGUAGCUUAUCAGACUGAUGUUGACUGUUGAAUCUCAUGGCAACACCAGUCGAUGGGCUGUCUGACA pre-miRNA-21 (unknown origin)
- Format: nucleic-acid assay
Parameter Ratio: see the listing below.
Give only the figure.

// solved cases for Ratio follow
{"Smiles Text": "Cc1ccc(C(=O)Nc2nc(-c3cccc(NC(=O)CCC(=O)N[C@@H](Cc4cn(C[C@H]5O[C@@H](O[C@@H]6[C@@H](O)[C@H](N)C[C@H](N)[C@H]6O[C@H]6O[C@H](CN)[C@@H](O)[C@H](O)[C@H]6N)[C@H](O)[C@@H]5O[C@H]5O[C@@H](CN)[C@@H](O)[C@H](O)[C@H]5N)nn4)C(=O)N[C@@H](Cc4c[nH]cn4)C(N)=O)c3)cs2)cc1", "Data Value": 1}
{"Smiles Text": "C[C@H](NC(=O)[C@H](Cc1cn(C[C@H]2O[C@@H](O[C@@H]3[C@@H](O)[C@H](N)C[C@H](N)[C@H]3O[C@H]3O[C@H](CN)[C@@H](O)[C@H](O)[C@H]3N)[C@H](O)[C@@H]2O[C@H]2O[C@@H](CN)[C@@H](O)[C@H](O)[C@H]2N)nn1)NC(=O)CCC(=O)NCCn1ccc(=O)[nH]c1=O)C(N)=O", "Data Value": 1.3}
{"Smiles Text": "Cc1ccc(C(=O)Nc2nc(-c3cccc(NC(=O)CCC(=O)N[C@@H](Cc4cn(C[C@H]5O[C@@H](O[C@@H]6[C@@H](O)[C@H](N)C[C@H](N)[C@H]6O[C@H]6O[C@H](CN)[C@@H](O)[C@H](O)[C@H]6N)[C@H](O)[C@@H]5O[C@H]5O[C@@H](CN)[C@@H](O)[C@H](O)[C@H]5N)nn4)C(=O)N[C@@H](CCCCN)C(N)=O)c3)cs2)cc1", "Data Value": 1.2}
{"Smiles Text": "NC[C@@H]1O[C@H](O[C@H]2[C@@H](O)[C@H](O[C@@H]3[C@@H](O)[C@H](N)C[C@H](N)[C@H]3O[C@H]3O[C@H](CN)[C@@H](O)[C@H](O)[C@H]3N)O[C@@H]2Cn2cc(CCC(=O)Nc3cccc(-c4csc(NC(=O)[C@@H](N)Cc5c[nH]cn5)n4)c3)nn2)[C@H](N)[C@@H](O)[C@@H]1O", "Data Value": 1}
{"Smiles Text": "CC(=O)Nc1nc(-c2cccc(NC(=O)CCC(=O)N[C@@H](Cc3cn(C[C@H]4O[C@@H](O[C@@H]5[C@@H](O)[C@H](N)C[C@H](N)[C@H]5O[C@H]5O[C@H](CN)[C@@H](O)[C@H](O)[C@H]5N)[C@H](O)[C@@H]4O[C@H]4O[C@@H](CN)[C@@H](O)[C@H](O)[C@H]4N)nn3)C(=O)N[C@@H](Cc3c[nH]cn3)C(N)=O)c2)cs1", "Data Value": 1}

[in] Item under review: CC(=O)Nc1nc(-c2cccc(NC(=O)CCC(=O)N[C@@H](Cc3cn(C[C@H]4O[C@@H](O[C@@H]5[C@@H](O)[C@H](N)C[C@H](N)[C@H]5O[C@H]5O[C@H](CN)[C@@H](O)[C@H](O)[C@H]5N)[C@H](O)[C@@H]4O[C@H]4O[C@@H](CN)[C@@H](O)[C@H](O)[C@H]4N)nn3)C(=O)N[C@@H](C)C(N)=O)c2)cs1 . Reported Ratio?
[out] 1.1
